# Tested target: Human adrenergic α2B receptor (Homo sapiens, UniProt P18089)
# Sequence (P18089 whole entry): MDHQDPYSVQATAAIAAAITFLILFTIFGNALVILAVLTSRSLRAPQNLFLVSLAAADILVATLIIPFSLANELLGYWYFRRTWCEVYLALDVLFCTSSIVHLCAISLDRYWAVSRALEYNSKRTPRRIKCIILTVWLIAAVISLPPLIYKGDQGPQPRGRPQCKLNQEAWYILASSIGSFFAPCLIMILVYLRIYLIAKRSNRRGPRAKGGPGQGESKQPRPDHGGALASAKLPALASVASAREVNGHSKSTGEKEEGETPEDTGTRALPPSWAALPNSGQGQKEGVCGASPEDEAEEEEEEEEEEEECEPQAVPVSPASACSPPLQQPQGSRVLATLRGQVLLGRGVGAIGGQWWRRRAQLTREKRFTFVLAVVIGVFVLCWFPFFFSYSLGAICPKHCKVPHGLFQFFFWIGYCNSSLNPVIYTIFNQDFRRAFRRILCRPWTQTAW
# Protocol summary: Radioligand binding, adrenergic α2B (Protocol Group B)
# Set-up: purchased Milipore (Millipore)
# Condition context: 0.1 μM compound; Protocol Group B; read-out: Percentage inhibition of ligand binding, Adrenergic α2B (0.1 μM)
Decision: inhibition at 0.1 µM >= 90% yields fulfilled, all other cases yield not fulfilled.

- Compound: "CC(O)(Cn1c2c(c3cc(Cl)cc(F)c31)C1CCCN1CC2)c1cccnc1 (single isomer, unassigned) [53a]"
  Tested target: "Human adrenergic α2B receptor (Homo sapiens, UniProt P18089)"
  Group label: "fulfilled"
- Compound: "Cc1ccc2c(c1)c1c(n2CC(C)(O)c2ccncc2)CC2CCCN2C1 (single isomer, unassigned) [37a]"
  Tested target: "Human adrenergic α2B receptor (Homo sapiens, UniProt P18089)"
  Group label: "not fulfilled"
- Compound: "Cc1ccc2c(c1)c1c(n2CC(OC2CCCC2)c2ccncc2)CCN(C)C1 (single isomer, unassigned) [35a]"
  Tested target: "Human adrenergic α2B receptor (Homo sapiens, UniProt P18089)"
  Group label: "fulfilled"
- Compound: "CC(O)(Cn1c2c(c3cc(C(F)(F)F)ccc31)C1CCCN1CC2)c1cccnc1 (single isomer, unassigned) [64a]"
  Tested target: "Human adrenergic α2B receptor (Homo sapiens, UniProt P18089)"
  Group label: "fulfilled"
- Compound: "CCCOC(Cn1c2c(c3cc(C)ccc31)CN(C)CC2)c1ccncc1 (single isomer, unassigned) [42a]"
  Tested target: "Human adrenergic α2B receptor (Homo sapiens, UniProt P18089)"
  Group label: "fulfilled"
- Compound: "Cc1ccc2c(c1)c1c(n2CC(O)c2ccc(C(=O)N(C)C)nc2)CCN(C)C1 (stereo not shown)"
  Tested target: "Human adrenergic α2B receptor (Homo sapiens, UniProt P18089)"
  Group label: "not fulfilled"
- Compound: "CC(O)(Cn1c2c(c3cc(F)ccc31)C1CCCN1CC2)c1ccncc1 (single isomer, unassigned) [31a]"
  Tested target: "Human adrenergic α2B receptor (Homo sapiens, UniProt P18089)"
  Group label: "fulfilled"
- Compound: "Cc1ccc2c(c1)c1c(n2CC(C)(O)c2cnccc2F)CCN(C)C1 (stereo not shown)"
  Tested target: "Human adrenergic α2B receptor (Homo sapiens, UniProt P18089)"
  Group label: "not fulfilled"
- Compound: "Cc1cc(F)cc2c3c(n(CC(C)(O)c4cccnc4)c12)CCN1CCCC31 (single isomer, unassigned) [75a]"
  Tested target: "Human adrenergic α2B receptor (Homo sapiens, UniProt P18089)"
  Group label: "not fulfilled"
- Compound: "CC(O)(Cn1c2c(c3cc(Cl)cc(F)c31)C1CCCN1CC2)c1ccncc1 (single isomer, unassigned) [52a]"
  Tested target: "Human adrenergic α2B receptor (Homo sapiens, UniProt P18089)"
  Group label: "fulfilled"
- Compound: "Cc1ccc2c(c1)c1c(n2CC(O)c2ccncc2F)CCN2CCCC12 (stereo not shown) [compound 14]"
  Tested target: "Human adrenergic α2B receptor (Homo sapiens, UniProt P18089)"
  Group label: "fulfilled"
- Compound: "Cc1ccc2c(c1)c1c(n2CC(C)(O)c2ccc(C(=O)N(C)CC3CC3)nc2)CCN(C)C1 (stereo not shown)"
  Tested target: "Human adrenergic α2B receptor (Homo sapiens, UniProt P18089)"
  Group label: "not fulfilled"
- Compound: "Cc1ccc2c(c1)c1c(n2CC(C)(O)c2ccnc(F)c2)CCN2CCCC12 (single isomer, unassigned) [48a]"
  Tested target: "Human adrenergic α2B receptor (Homo sapiens, UniProt P18089)"
  Group label: "fulfilled"

###

inhibition at 0.1 µM values, listed per item
# Tested target: Human adrenergic α1B receptor (Homo sapiens)
# Sequence (P35368 1-520): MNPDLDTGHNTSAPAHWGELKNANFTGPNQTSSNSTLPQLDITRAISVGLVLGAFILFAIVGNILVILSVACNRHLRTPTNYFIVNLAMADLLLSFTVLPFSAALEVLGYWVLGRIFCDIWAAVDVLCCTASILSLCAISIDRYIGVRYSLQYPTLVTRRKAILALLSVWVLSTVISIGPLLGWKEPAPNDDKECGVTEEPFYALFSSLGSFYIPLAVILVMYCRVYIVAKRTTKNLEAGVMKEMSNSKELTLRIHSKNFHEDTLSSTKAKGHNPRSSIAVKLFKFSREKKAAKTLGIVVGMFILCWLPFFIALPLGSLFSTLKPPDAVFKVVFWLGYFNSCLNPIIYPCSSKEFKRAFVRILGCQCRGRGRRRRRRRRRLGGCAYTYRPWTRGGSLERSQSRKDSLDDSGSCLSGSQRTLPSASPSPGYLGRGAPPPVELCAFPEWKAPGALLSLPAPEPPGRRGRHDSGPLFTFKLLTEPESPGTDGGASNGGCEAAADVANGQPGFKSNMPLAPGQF
# Protocol summary: Radioligand binding, adrenergic α1B (Protocol Group B)
# Set-up: purchased Milipore (Millipore)
# Condition context: 0.1 μM compound; Protocol Group B; read-out: Percentage inhibition of ligand binding, Adrenergic α1B (0.1 μM)

- Molecule: "Cc1ccc2c(c1)c1c(n2CC(O)c2ccncc2F)CCN2CCCC12 (centres unmarked) [compound 14]"
  inhibition at 0.1 µM / %: 74
- Molecule: "Cc1cc2c3c(n(CC(O)c4ccncc4)c2cc1Cl)CCN1CCCC31 (centres unmarked) [compound 21]"
  inhibition at 0.1 µM / %: 84
- Molecule: "Cc1ccc2c(c1)c1c(n2C[C@@H](OC2CCCC2)c2ccncc2)CCN2CCC[C@H]12 [compound 82]"
  inhibition at 0.1 µM / %: 56
- Molecule: "Cc1ccc2c(c1)c1c(n2CC(O)c2ccncc2F)CCN2CCCC12 (single isomer, unassigned) [14a]"
  inhibition at 0.1 µM / %: 70
- Molecule: "Cc1ccc2c(c1)c1c(n2CC(O)c2cccnc2)C(O)CN(C)C1 (centres unmarked) [compound 24]"
  inhibition at 0.1 µM / %: -3

###

# Tested target: Human adrenergic α2A receptor (Homo sapiens, UniProt P08913)
# Sequence (P08913 whole entry): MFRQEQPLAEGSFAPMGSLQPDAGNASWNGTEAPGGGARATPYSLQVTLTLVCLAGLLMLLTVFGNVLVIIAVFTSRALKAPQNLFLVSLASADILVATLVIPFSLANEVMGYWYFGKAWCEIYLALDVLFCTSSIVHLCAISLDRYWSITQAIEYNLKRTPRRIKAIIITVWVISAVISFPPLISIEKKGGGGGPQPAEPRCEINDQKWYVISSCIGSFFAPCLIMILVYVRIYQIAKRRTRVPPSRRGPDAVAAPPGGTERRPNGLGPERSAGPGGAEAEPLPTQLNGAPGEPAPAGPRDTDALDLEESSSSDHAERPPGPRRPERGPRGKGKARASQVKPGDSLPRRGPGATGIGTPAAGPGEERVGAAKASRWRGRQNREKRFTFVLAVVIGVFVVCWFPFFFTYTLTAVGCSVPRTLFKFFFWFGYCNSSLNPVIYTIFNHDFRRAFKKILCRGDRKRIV
# Protocol summary: Radioligand binding, adrenergic α2A (Protocol Group B)
# Parameters: purchased Milipore (Millipore)
# Condition context: 0.3 μM compound; Protocol Group B; 0.3 µM
Listing: Percentage inhibition of ligand binding, Adrenergic α2A (0.3 μM) of selected molecules
Measured endpoint: Percentage inhibition of ligand binding, Adrenergic α2A (0.3 μM) (%)

- Molecule: "Cc1ccc2c(c1)c1c(n2CC(C)(O)c2cccnc2)CC2CCCN2C1 (stereo not shown) [41d]"
  Unit of measure: "%"
  Recorded value: 13
- Molecule: "CC(O)(Cn1c2c(c3cc(Cl)cc(F)c31)CN1CCCC1C2)c1ccncc1 (single isomer, unassigned) [86b]"
  Unit of measure: "%"
  Recorded value: 14
- Molecule: "Cc1cc(F)cc2c3c(n(CC(O)c4ccncc4)c12)CCN1CCCC31 (single isomer, unassigned) [136b]"
  Unit of measure: "%"
  Recorded value: 72
- Molecule: "CC(O)(Cn1c2c(c3cc(F)ccc31)C1CCCN1CC2)c1cccnc1 (stereo not shown) [51b]"
  Unit of measure: "%"
  Recorded value: 34
- Molecule: "Cc1ccc2c(c1)c1c(n2CC(C)(O)c2ccc(F)cc2)CC2CCC1N2C (single isomer, unassigned) [102c]"
  Unit of measure: "%"
  Recorded value: "−5"
- Molecule: "Cc1ccc2c(c1F)c1c(n2CC(C)(O)c2cccnc2)CCN2CCCC12 (single isomer, unassigned) [87a]"
  Unit of measure: "%"
  Recorded value: 33
- Molecule: "CC(O)(Cn1c2c(c3cc(C(F)(F)F)ccc31)C1CCCN1CC2)c1cccnc1 (single isomer, unassigned) [64a]"
  Unit of measure: "%"
  Recorded value: 61
- Molecule: "Cc1ccc2c(c1)c1c(n2CC(C)(O)c2ccc(N(C)C)nc2)CCN(C)C1 (single isomer, unassigned) [39a]"
  Unit of measure: "%"
  Recorded value: 26
- Molecule: "Cc1cc(F)cc2c3c(n(CC(C)(O)c4ccncc4)c12)CC1CCCN1C3 (single isomer, unassigned) [78a]"
  Unit of measure: "%"
  Recorded value: "−7"
- Molecule: "Cc1cc(C)c2c(c1)c1c(n2CC(C)(O)c2cccnc2)CCN2CCCC12 (single isomer, unassigned) [44d]"
  Unit of measure: "%"
  Recorded value: "−16"
- Molecule: "CC(O)(Cn1c2c(c3cc(Cl)cc(F)c31)CN1CCCC1C2)c1cccnc1 (single isomer, unassigned) [63d]"
  Unit of measure: "%"
  Recorded value: "−12"
- Molecule: "Cc1ccc2c(c1)c1c(n2CC(O)c2ccncc2)CNC2CCCC12 (single isomer, unassigned) [34a]"
  Unit of measure: "%"
  Recorded value: "−5"
- Molecule: "Cc1ccc2c(c1)c1c(n2CC(C)(O)c2cccnc2)CC2CCCN2C1 (stereo not shown) [38d]"
  Unit of measure: "%"
  Recorded value: 3
- Molecule: "Cc1ccc2c(c1)c1c(n2CC(O)c2ccccn2)CC2CCCN2C1 (single isomer, unassigned) [45a]"
  Unit of measure: "%"
  Recorded value: 12
- Molecule: "Cc1ccc2c(c1F)c1c(n2CC(C)(O)c2cccnc2)CCN2CCCC12 (single isomer, unassigned) [87b]"
  Unit of measure: "%"
  Recorded value: 53
- Molecule: "Cc1cc2c3c(n(CC(C)(O)c4ccncc4)c2cc1Cl)CCN1CCCC31 (single isomer, unassigned) [50c]"
  Unit of measure: "%"
  Recorded value: 49
